Attribution: paper PMC12888861

Quick list: MIC per entry.
Test system: carbapenem-susceptible A. baumannii isolates (n = 54)
Assay: MIC, broth microdilution (EUCAST), carbapenem-susceptible A. baumannii isolates
Format: cell-based, Acinetobacter baumannii
Settings: Acinetobacter baumannii, isolate Ab142; ST 1; ADC-like, OXA-69; in combinations ETZ fixed at 8 mg/L
Method: The bacterial strains used in this study comprised 208 clinical isolates from the Spanish National Acinetobacter spp. […] The antimicrobial susceptibility of the 208 Acinetobacter spp. isolates was assessed using the broth microdilution method, as described in the European Committee on Antimicrobial Susceptibility Testing (EUCAST) v.15 guidelines (http://www.eucast.org/clinical_breakpoints). […] MICs for enmetazobactam alone were assessed as well. […]
Output spec: scalar in µg/mL, unitless text.

Reference set (3 entries):
In [3]: df
Out[3]:
                                   molecule  quantity_measured  data_value
0  C[C@@H](O)[C@H]1C(=O)N2C(C(=O)O)=C(SCCN=CN)C[C@H]12 [imipenem]                MIC           1
1  CO/N=C(\C(=O)N[C@@H]1C(=O)N2C(C(=O)[O-])=C(C[N+]3(C)CCCC3)CS[C@H]12)c1csc(N)n1 [cefepime]                MIC          16
2  C[n+]1ccn(C[C@@]2(C)[C@H](C(=O)[O-])N3C(=O)C[C@H]3S2(=O)=O)n1 [enmetazobactam]                MIC           8

// query MIC value for entry CC1(C)[C@H](C(=O)O)N2C(=O)C[C@H]2S1(=O)=O [sulbactam]
4
